Target: Muscarinic acetylcholine receptor M3 (Homo sapiens, UniProt P20309)
Sequence (P20309 whole entry, looked up): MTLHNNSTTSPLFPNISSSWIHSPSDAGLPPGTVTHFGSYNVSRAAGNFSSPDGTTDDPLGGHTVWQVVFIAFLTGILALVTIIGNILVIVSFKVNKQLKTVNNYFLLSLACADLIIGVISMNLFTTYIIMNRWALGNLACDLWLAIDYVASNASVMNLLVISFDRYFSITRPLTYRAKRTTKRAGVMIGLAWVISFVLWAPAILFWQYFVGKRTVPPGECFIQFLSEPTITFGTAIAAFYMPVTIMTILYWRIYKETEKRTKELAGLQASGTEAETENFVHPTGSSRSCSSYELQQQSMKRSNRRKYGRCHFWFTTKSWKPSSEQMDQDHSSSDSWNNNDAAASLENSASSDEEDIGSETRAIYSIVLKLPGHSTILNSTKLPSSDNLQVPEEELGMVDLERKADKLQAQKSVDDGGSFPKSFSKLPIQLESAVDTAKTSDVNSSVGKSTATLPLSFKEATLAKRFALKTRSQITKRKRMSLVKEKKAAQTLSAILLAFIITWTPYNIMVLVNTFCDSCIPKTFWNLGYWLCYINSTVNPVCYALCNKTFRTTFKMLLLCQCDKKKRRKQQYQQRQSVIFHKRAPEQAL
Assay: Inhibition of binding of [3H]quinuclidinyl benzilate to human Muscarinic acetylcholine receptor M3 in membranes of transfected CHO cells at 100 uM concentration
Settings: Membrane
Experimental Readout: inhibition (%)
Report the figure in % without appending any unit label.

Sure, the documented inhibition for COC(=O)C1=CCC2CCC1N2C (centres undefined) is 28

Looking up C[C@@H]1O[C@H](C[N+](C)(C)C)C[C@H]1O [MUSCARINE] , I see its inhibition listed as 28

Given item COC(=O)C1C(O)CC2CCC1N2C (centres undefined) , the value recorded as its inhibition is 28

get_value(item= COC(=O)[C@H]1CC2NC1CC[C@@H]2O (some centres undefined) , readout=inhibition) returns 0

###

Target: Muscarinic acetylcholine receptor M2 (Rattus norvegicus)
Sequence (P10980 whole entry): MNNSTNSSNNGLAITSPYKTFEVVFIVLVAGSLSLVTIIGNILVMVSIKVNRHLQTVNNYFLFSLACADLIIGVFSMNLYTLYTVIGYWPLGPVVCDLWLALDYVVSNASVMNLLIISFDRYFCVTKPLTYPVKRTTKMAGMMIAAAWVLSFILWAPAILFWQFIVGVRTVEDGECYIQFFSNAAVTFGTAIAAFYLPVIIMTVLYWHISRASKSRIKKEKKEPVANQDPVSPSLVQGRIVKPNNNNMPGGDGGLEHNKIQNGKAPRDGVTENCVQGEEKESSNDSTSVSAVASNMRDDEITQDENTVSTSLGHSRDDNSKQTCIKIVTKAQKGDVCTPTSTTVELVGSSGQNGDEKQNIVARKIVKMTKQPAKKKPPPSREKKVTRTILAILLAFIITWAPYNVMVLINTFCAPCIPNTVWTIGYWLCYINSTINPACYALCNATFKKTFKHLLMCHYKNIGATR
Experiment: Inhibition of binding of [3H]quinuclidinyl benzilate to muscarinic receptors in membranes of CHO cells transfected with Muscarinic acetylcholine receptor M2
Experimental Readout: Ki

Ki measured on COC(=O)[C@H]1CC2NC1CC[C@@H]2O (stereo partly specified) = 12 µM

###

Molecular target: Muscarinic acetylcholine receptor M1 (Rattus norvegicus)
Sequence (P08482 whole entry): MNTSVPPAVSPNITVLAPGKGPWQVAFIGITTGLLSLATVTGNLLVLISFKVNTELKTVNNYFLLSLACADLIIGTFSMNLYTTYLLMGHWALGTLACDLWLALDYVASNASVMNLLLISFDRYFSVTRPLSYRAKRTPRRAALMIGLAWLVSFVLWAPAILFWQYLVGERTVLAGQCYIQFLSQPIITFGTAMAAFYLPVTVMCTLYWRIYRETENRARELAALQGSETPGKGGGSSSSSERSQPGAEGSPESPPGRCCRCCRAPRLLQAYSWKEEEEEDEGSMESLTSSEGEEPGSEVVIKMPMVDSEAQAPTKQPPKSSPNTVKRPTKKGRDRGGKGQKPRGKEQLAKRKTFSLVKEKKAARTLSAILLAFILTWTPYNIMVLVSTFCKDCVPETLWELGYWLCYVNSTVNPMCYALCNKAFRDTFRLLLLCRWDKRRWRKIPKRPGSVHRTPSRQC
Assay: Affinity versus [3H]quinuclidinyl benzilate (antagonist) binding to Muscarinic acetylcholine receptor M1 in Rat Cerebral Cortical Membranes,
Experimental Readout: pKi
As a rule, pKi stands for the negative log10 of the concentration, concentration in M.

Input CC(=O)OC1CC2CCCC1N2C (stereo unspecified) . Output pKi: 3.55

###

Target: UniProt:P08482
Experiment: Inhibition of binding of [3H]oxotremorine M to Muscarinic acetylcholine receptor M1 in rat cerebral cortical membranes
Type: cell membranes, Membrane
Please provide measured Ki for the entries that follow.
Write the quantity with the unit trailing the number.

# Ki (compound: CC(=O)OC1CC2CCCC1N2C (centres undefined) ) is 2600 nM

Per the record, CC(=O)OC1CC2CCCC1N2 (centres undefined) has Ki of 5.6 nM

Recorded Ki (compound COC(=O)[C@H]1CC2NC1CC[C@@H]2O (some centres undefined) ): 18000 nM

Item: COC(=O)C1CC2CCCC1N2 (centres undefined) | Ki: 260 nM

###

Target: Muscarinic acetylcholine receptor M4 (Homo sapiens, UniProt P08173)
Sequence (P08173 whole entry): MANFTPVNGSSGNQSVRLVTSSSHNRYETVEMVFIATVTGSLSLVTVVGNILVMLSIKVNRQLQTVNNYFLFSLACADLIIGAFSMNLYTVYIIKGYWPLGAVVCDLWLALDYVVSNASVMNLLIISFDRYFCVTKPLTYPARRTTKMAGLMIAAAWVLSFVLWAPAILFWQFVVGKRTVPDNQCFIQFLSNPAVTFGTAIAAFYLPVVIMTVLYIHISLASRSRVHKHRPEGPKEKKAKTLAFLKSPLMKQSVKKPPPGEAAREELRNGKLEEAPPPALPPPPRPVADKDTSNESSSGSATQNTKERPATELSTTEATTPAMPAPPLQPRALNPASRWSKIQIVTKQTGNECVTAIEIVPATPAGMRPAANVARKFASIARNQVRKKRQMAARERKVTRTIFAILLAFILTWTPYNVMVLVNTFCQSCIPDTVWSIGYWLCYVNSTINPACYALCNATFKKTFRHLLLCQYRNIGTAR
Assay: Inhibition of binding of [3H]quinuclidinyl benzilate to muscarinic receptors in membranes of CHO cells transfected with Muscarinic acetylcholine receptor M4
Experimental Readout: Ki (µM)
Provide the reading as a plain figure in µM.

For this compound ( CC(=O)OC(C)C[N+](C)(C)C (centres undefined) ), measured Ki is 1.6

So for CC(=O)OC1CC2CCCC1N2C (centres undefined) , the logged Ki turned out to be 8.3

Entry CC(=O)OC1CC2CCCC1N2 (centres undefined) , Ki reported as 0.033

Ki for COC(=O)C1CC2CCCC1N2 (centres undefined) is 7.9
